# testedSystem: KRAS
# particulars: ASO, A431, 2 µM
After the bases stand the sugars from the 5' end (letter, count) and the backbone: PS all phosphorothioate, else s phosphorothioate and o phosphodiester by linkage. Methylation of C is not given here. e = 2'-O-(2-methoxyethyl) (MOE); k = constrained ethyl (cEt); d = 2'-deoxy (DNA)
For each entry below, report its target mRNA inhibition value.
Kindly answer with a numeric value in %, unit omitted.

Recorded target mRNA inhibition for CTTGATTTGTCAGCAG (sugars kkkddddddddkekek, PS) , please?
41

Input CTTCATTGTTTAAAAA (sugars k3 d10 k3, PS)
11

Same lookup for GATATCCACAGCAGCA (sugars k3 d10 k3, PS) , please.
10

Same question, AGTGTGACTCAGTTAA (sugars kkdddddddddkekek, PS) this time
48

Same again, this time with TTGTACTAGTATGCCT (sugars k3 d10 k3, PS)
55

Likewise for CAGTGTGACTCAGTTA (sugars kddddddddddkekek, PS) ?
32

Request: TCTCCATTAGTAAATA (sugars k3 d10 k3, PS)
13

Now this one: GAGATATCCACAGCAG (sugars k3 d10 k3, PS)
49

Next: ATGGTGTAACATAGGT (sugars kkddddddddkekekk, PS)
40

Also AAAAAAAAATTAATGT (sugars k3 d10 k3, PS) , if possible.
16

Next up: ATTAGGAGTCTTTATA (sugars k3 d10 k3, PS)
20
